# EXPERIMENTAL SYSTEM: recombinant human Bcl-2-G101V protein (Homo sapiens (Human), UniProt P10415, G101V)
# TEST PROTOCOL: Bcl-2-G101V TR-FRET Assay
# Format: binding
# EXPERIMENTAL CONTEXT: Bcl-2 G101V mutant, TR-FRET; read-out: Biochemical assay (IC50, nM) Bcl-2 G101V
EXPERIMENTAL ENDPOINT: IC50 (nM)
Give the value in nM but do not write nM after it.

| MOLECULE | EXPERIMENTAL SYSTEM | RESULT VALUE |
| --- | --- | --- |
| CC(C)c1ccccc1C1CN(C(C)c2ccccc2)CCN1C1CC2(CCN(c3ccc(C(=O)NS(=O)(=O)c4ccc(NC[C@H]5CC[C@](C)(O)CC5)c([N+](=O)[O-])c4)c(Oc4cnc5[nH]ccc5c4)c3)CC2)C1 (single isomer, unassigned) [Example 24a] | recombinant human Bcl-2-G101V protein (Homo sapiens (Human), UniProt P10415, G101V) | 6.9 |

# input for lookup
Problem: Consider the molecule shown here: COc1ccc(CN2CCN(C3CC4(CCN(c5ccc(C(=O)NS(=O)(=O)c6ccc(NC[C@H]7CC[C@](C)(O)CC7)c([N+](=O)[O-])c6)c(Oc6cnc7[nH]ccc7c6)c5)CC4)C3)C(c3ccccc3C(C)C)C2)cc1C1CC1 (some centres unmarked) What is its recorded IC50?
Result: 2.9

###

# EXPERIMENTAL SYSTEM: Recombinant human Bcl-2 protein (Homo sapiens (Human), UniProt P10415)
# TEST PROTOCOL: Bcl-2 TR-FRET Assay
# Type: binding
# EXPERIMENTAL CONTEXT: Bcl-2 wild type, TR-FRET; read-out: Biochemical assay (IC50, nM) Bcl-2 WT
Recorded IC50, one value per entry.
Write your answer as a measured quantity: the number, then the unit.

Solved entries:
| MOLECULE | EXPERIMENTAL SYSTEM | IC50 |
| --- | --- | --- |
| [2H]C([2H])([2H])Oc1ccc(CN2CCN(C3CC4(C3)CN(c3ccc(C(=O)NS(=O)(=O)c5ccc(NC[C@H]6CC[C@](C)(O)CC6)c([N+](=O)[O-])c5)c(Oc5cnc6[nH]ccc6c5)c3)C4)[C@H](c3ccccc3C(C)C)C2)cc1OC([2H])([2H])[2H] | Recombinant human Bcl-2 protein (Homo sapiens (Human), UniProt P10415) | 0.04 nM |
| [2H]C([2H])([2H])Oc1ccc(CN2CCN(C3CC4(CCN(c5ccc(C(=O)NS(=O)(=O)c6ccc(NC[C@H]7CC[C@](C)(O)CC7)c([N+](=O)[O-])c6)c(Oc6cnc7[nH]ccc7c6)c5)CC4)C3)C(c3ccccc3C(C)C)C2)cc1OC([2H])([2H])[2H] (stereo partly shown) | Recombinant human Bcl-2 protein (Homo sapiens (Human), UniProt P10415) | 0.041 nM |
| [2H]C([2H])([2H])Oc1cc(CN2CCN(C3CC4(C3)CN(c3ccc(C(=O)NS(=O)(=O)c5ccc(NC[C@H]6CC[C@](C)(O)CC6)c([N+](=O)[O-])c5)c(Oc5cnc6[nH]cc(F)c6c5)c3)C4)[C@H](c3ccccc3C(C)C)C2)cc2c1OCC2(C)C | Recombinant human Bcl-2 protein (Homo sapiens (Human), UniProt P10415) | 0.17 nM |

# input for lookup
Problem: Consider the molecule shown here: CC(C)c1ccccc1[C@@H]1CN(Cc2ccc3c(c2)OCCC3)CCN1C1CC2(CCN(c3ccc(C(=O)NS(=O)(=O)c4ccc(NC[C@H]5CC[C@](C)(O)CC5)c([N+](=O)[O-])c4)c(Oc4cnc5[nH]ccc5c4)c3)CC2)C1 What is its recorded IC50?
Result: 0.25 nM

###

# Tested on: RS4;11 (BCL-2 dependent acute lymphoblastic leukemia cell line)
# TEST PROTOCOL: RS4;11 Cell Proliferation Assay
# Type: cell-based
# EXPERIMENTAL CONTEXT: Homo sapiens, RS4-11, RS4;11 cells, read-out: Cellular proliferation assay (IC50, nM) RS4
Recorded IC50, one value per entry.
Give the value in nM but do not write nM after it.

Solved entries:
| COMPOUND | EXPERIMENTAL SYSTEM | IC50 [nM] |
| --- | --- | --- |
| CC(C)c1ccccc1[C@@H]1CN(Cc2ccc3c(c2)OCCC3)CCN1C1CC2(CCN(c3ccc(C(=O)NS(=O)(=O)c4ccc(NC[C@H]5CC[C@](C)(O)CC5)c([N+](=O)[O-])c4)c(Oc4cnc5[nH]ccc5c4)c3)CC2)C1 [Example 282] | RS4;11 (BCL-2 dependent acute lymphoblastic leukemia cell line) | 0.36 |
| CC(C)c1ccccc1C1CN(Cc2ccc3c(c2)OCCO3)CCN1C1CC2(CCN(c3ccc(C(=O)NS(=O)(=O)c4ccc(NC[C@H]5CC[C@](C)(O)CC5)c([N+](=O)[O-])c4)c(Oc4cnc5[nH]ccc5c4)c3)CC2)C1 (stereo partly shown) [Example 78] | RS4;11 (BCL-2 dependent acute lymphoblastic leukemia cell line) | 0.42 |

Problem: Consider the compound shown here: COc1ccc(CN2CCN(C3CC4(C3)CN(c3ccc(C(=O)NS(=O)(=O)c5ccc(NC[C@H]6CC[C@](C)(O)CC6)c([N+](=O)[O-])c5)c(Oc5cnc6[nH]cc(F)c6c5)c3)C4)[C@@H](c3ccccc3C(C)C)C2)cc1OC [Example 141b] What is its recorded IC50?
Result: 0.659

Problem: Consider the compound shown here: COc1cc(CN2CCN(C3CC4(CCN(c5ccc(C(=O)NS(=O)(=O)c6ccc(NC[C@H]7CC[C@](C)(O)CC7)c([N+](=O)[O-])c6)c(Oc6cnc7[nH]ccc7c6)c5)CC4)C3)[C@H](c3ccccc3C(C)C)C2)ccc1C(C)C [Example 263] What is its recorded IC50?
Result: 0.18

###

# EXPERIMENTAL SYSTEM: recombinant human Bcl-2 D103Y protein (Homo sapiens (Human), UniProt P10415, D103Y)
# TEST PROTOCOL: Bcl-2-D103Y Biochemical Assay (TR-FRET)
# Assay type: binding
# EXPERIMENTAL CONTEXT: TR-FRET, FITC labeled Bak peptide
EXPERIMENTAL ENDPOINT: pIC50
FYI, pIC50 means -log10 of a concentration in mol per litre.

| COMPOUND | EXPERIMENTAL ENDPOINT | RESULT VALUE |
| --- | --- | --- |
| CC(C)c1ccccc1C1CC(Oc2ccccc2)CCN1C1CC2(CCN(c3ccc(C(=O)NS(=O)(=O)c4ccc(NC[C@H]5CC[C@](C)(O)CC5)c([N+](=O)[O-])c4)c(Oc4cnc5[nH]ccc5c4)c3)CC2)C1 (stereo partly shown) | pIC50 | 9.06 |
| [2H]C([2H])([2H])Oc1ccc(CN2CCN(C3CC4(C3)CN(c3ccc(C(=O)NS(=O)(=O)c5ccc(NC[C@H]6CC[C@](C)(O)CC6)c([N+](=O)[O-])c5)c(Oc5cnc6[nH]ccc6c5)c3)C4)[C@H](c3ccccc3C(C)C)C2)cc1OC([2H])([2H])[2H] | pIC50 | 10.39 |
| COc1cc(CN2CCN(C3CC4(C3)CN(c3ccc(C(=O)NS(=O)(=O)c5ccc(NC[C@H]6CC[C@](C)(O)CC6)c([N+](=O)[O-])c5)c(Oc5cnc6[nH]cc(F)c6c5)c3)C4)[C@H](c3ccccc3C(C)C)C2)cc2c1OCCC2 | pIC50 | 10.09 |

# input for lookup
Problem: Consider the compound shown here: COc1cc(CN2CCN(C3CC4(CCN(c5ccc(C(=O)NS(=O)(=O)c6ccc(NC[C@H]7CC[C@](C)(O)CC7)c([N+](=O)[O-])c6)c(Oc6cnc7[nH]ccc7c6)c5)CC4)C3)C(c3ccccc3C(C)C)C2)ccc1F (stereo partly shown) What is its recorded pIC50?
Result: 9.38

###

Recorded IC50, one value per entry.
# EXPERIMENTAL SYSTEM: Recombinant human Bcl-2 protein (Homo sapiens (Human))
# TEST PROTOCOL: Bcl-2 TR-FRET Assay
# Format: binding
# EXPERIMENTAL CONTEXT: Bcl-2 wild type, TR-FRET; read-out: Biochemical assay (IC50, nM) Bcl-2 WT
Give the value in nM but do not write nM after it.

Solved entries:
| MOLECULE | RESULT VALUE |
| --- | --- |
| COc1ccc(N2CCCC(N3CCN(C4CC5(CCN(c6ccc(C(=O)NS(=O)(=O)c7ccc(NC[C@H]8CC[C@](C)(O)CC8)c([N+](=O)[O-])c7)c(Oc7cnc8[nH]ccc8c7)c6)CC5)C4)C(c4ccccc4C(C)C)C3)C2)cc1 (stereo partly shown) | 0.65 |
| Cc1ccc(CN2CCN(C3CC4(CCN(c5ccc(C(=O)NS(=O)(=O)c6ccc(NC[C@H]7CC[C@](C)(O)CC7)c([N+](=O)[O-])c6)c(Oc6cnc7[nH]ccc7c6)c5)CC4)C3)C(c3ccccc3C(C)C)C2)cc1 (stereo partly shown) | 0.27 |
| CC(C)c1ccccc1[C@@H]1CN(Cc2cccc3c2OCCO3)CCN1C1CC2(CCN(c3ccc(C(=O)NS(=O)(=O)c4ccc(NC[C@H]5CC[C@](C)(O)CC5)c([N+](=O)[O-])c4)c(Oc4cnc5[nH]ccc5c4)c3)CC2)C1 [Example 79b] | 0.33 |

# input for lookup
Problem: Test system Recombinant human Bcl-2 protein (Homo sapiens (Human)); read-out IC50; what value for CC(C)c1ccccc1[C@@H]1CN(Cc2cccc3c2OCCO3)CCN1C1CC2(C1)CN(c1ccc(C(=O)NS(=O)(=O)c3ccc(NC[C@H]4CC[C@](C)(O)CC4)c([N+](=O)[O-])c3)c(Oc3cnc4[nH]ccc4c3)c1)C2 [Example 149a] ?
Result: 0.11
